// DLD-1 cell strain, 5-FU resistant strain, FTD resistant strain methylation on microRNA, 5-FU resistant strain records
One number for each entry.

miR-378f (ACUGGACUUGGAGCCAGAAG; chemistry not fully specified; listed as Homo sapiens) ... 1
miR-3122 (GUUGGGACAAGAGGACGGUCUU; chemistry not fully specified; listed as Homo sapiens) ... 2
miR-378i (ACUGGACUAGGAGUCAGAAGG; chemistry not fully specified; listed as Homo sapiens) ... 1
miR-378e (ACUGGACUUGGAGUCAGGA; chemistry not fully specified; listed as Homo sapiens) ... 2
miR-4754 (AUGCGGACCUGGGUUAGCGGAGU; chemistry not fully specified; listed as Homo sapiens) ... 4

Please report the recorded methylation on microRNA, 5-FU resistant strain for miR-492 (AGGACCUGCGGGACAAGAUUCUU; chemistry not fully specified; listed as Homo sapiens) .
0
